Where these numbers come from: paper PMC10095950

- tested system: human PLK1 (NLuc-PLK1) (Homo sapiens, UniProt P53350)
- Construct: plasmid DNAs encoding N- and C-terminal fusions of full-length PLK1 with NLuc; host or cells: HEK293
- Sequence (P53350 whole entry, the tested form may be a part): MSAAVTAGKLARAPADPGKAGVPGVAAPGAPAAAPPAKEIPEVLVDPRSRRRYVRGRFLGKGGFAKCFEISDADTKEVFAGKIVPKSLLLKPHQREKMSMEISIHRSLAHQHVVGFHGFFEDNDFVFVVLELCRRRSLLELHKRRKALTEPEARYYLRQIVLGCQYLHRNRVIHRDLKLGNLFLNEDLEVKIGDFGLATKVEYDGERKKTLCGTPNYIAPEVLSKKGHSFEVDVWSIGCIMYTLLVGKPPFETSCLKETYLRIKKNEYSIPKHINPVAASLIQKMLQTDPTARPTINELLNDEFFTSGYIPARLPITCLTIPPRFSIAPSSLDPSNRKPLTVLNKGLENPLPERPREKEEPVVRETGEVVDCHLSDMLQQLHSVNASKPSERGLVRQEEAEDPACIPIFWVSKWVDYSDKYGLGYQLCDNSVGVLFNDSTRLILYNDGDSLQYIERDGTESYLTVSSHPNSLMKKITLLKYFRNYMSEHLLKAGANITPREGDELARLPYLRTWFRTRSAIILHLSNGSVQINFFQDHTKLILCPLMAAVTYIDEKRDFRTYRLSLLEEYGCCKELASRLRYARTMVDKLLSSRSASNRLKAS
- assay method text: PLK1 NanoBRET target engagement assay (NLuc-PLK1, N-terminal fusion) in live HEK293 cells
- Format: cell-based
- condition details: Probe 11 Conc. 0.1 μM, NLuc-PLK1, ADH format; read-out: apparent IC50
parameter: pIC50
Scale: negative log10 of molar concentration, which is what pIC50 denotes.

Task: Please list pIC50 recorded for the compound `CC[C@@H]1C(=O)N(C)c2cnc(Nc3ccc(C(=O)NC4CCNCC4)cc3OC)nc2N1C(C)C`
Result: 6.69

====

- tested system: human PLK1 (NLuc-PLK1) (Homo sapiens)
- Construct: plasmid DNAs encoding N- and C-terminal fusions of full-length PLK1 with NLuc; host or cells: HEK293
- assay method text: PLK1 NanoBRET target engagement assay (NLuc-PLK1, N-terminal fusion) in live HEK293 cells
- Type: cell-based
- condition details: probe 11; at least three technical replicates; read-out: PLK1 NanoBRET IC50 (dose response, Figure 3a)
parameter: IC50

Task: Please list IC50 recorded for the compound `C=CCn1c(=O)c2cnc(Nc3ccc(N4CCN(C)CC4)cc3)nc2n1-c1cccc(C(C)(C)O)n1`
Result: > 1 µM

====

- tested system: human PLK1 (NLuc-PLK1) (Homo sapiens)
- Construct: plasmid DNAs encoding N- and C-terminal fusions of full-length PLK1 with NLuc; host or cells: HEK293
- assay method text: PLK1 NanoBRET target engagement assay (NLuc-PLK1, N-terminal fusion) in live HEK293 cells
- Assay type: cell-based
- condition details: Probe 11 Conc. 0.6 μM, NLuc-PLK1, ADH format; read-out: apparent IC50
parameter: IC50
Form entry: enter the amount, then its unit.

Task: Please list IC50 recorded for the molecule CC[C@@H]1C(=O)N(C)c2cnc(Nc3ccc(C(=O)NC4CCNCC4)cc3OC)nc2N1C(C)C [compound 1]
Result: 285 nM

====

- tested system: human PLK1 (NLuc-PLK1) (Homo sapiens)
- Construct: plasmid DNAs encoding N- and C-terminal fusions of full-length PLK1 with NLuc; host or cells: HEK293
- assay method text: PLK1 NanoBRET target engagement assay (NLuc-PLK1, N-terminal fusion) in live HEK293 cells
- Assay type: cell-based
- condition details: Probe 11 Conc. 0.4 μM, NLuc-PLK1, ADH format; read-out: apparent IC50
parameter: pIC50
Scale: negative log10 of molar concentration, which is what pIC50 denotes.

Task: State pIC50 on human PLK1 (NLuc-PLK1) (Homo sapiens). Entry: CC[C@@H]1C(=O)N(C)c2cnc(Nc3ccc(C(=O)NC4CCNCC4)cc3OC)nc2N1C(C)C [compound 1]
Result: 6.61
